# assayOverview: method code SF-AS, from DOI: 10.1080/10826079608005496
Answer each item with its documented logP.

// field: logP; key: CC(C)OC(=O)CSc1ccc([N+](=O)[O-])cc1[N+](=O)[O-] ; value = 2.72

// field: logP; key: COC(=O)CSc1ccc([N+](=O)[O-])cc1Cl ; value = 2.66

// field: logP; key: CC(C)OC(=O)CS(=O)c1ccc([N+](=O)[O-])cc1Cl (configuration not stated) ; value = 2.04

// field: logP; key: CC(C)OC(=O)CS(=O)(=O)c1ccc([N+](=O)[O-])cc1Cl ; value = 2.12

// field: logP; key: COC(=O)CS(=O)(=O)c1ccc(Cl)cc1[N+](=O)[O-] ; value = 1.6

// field: logP; key: CC(C)OC(=O)CS(=O)(=O)c1ccc(Cl)cc1[N+](=O)[O-] ; value = 2.24

// field: logP; key: COC(=O)CS(=O)c1ccc([N+](=O)[O-])cc1[N+](=O)[O-] (configuration not stated) ; value = 0.79

---

Answer each item with its documented logP.
# assayOverview: method code SF-AS, from DOI: 10.1080/10826079608005496
No unit in the answer, please; the number alone is enough.

// field: logP; key: CC(C)OC(=O)CS(=O)(=O)c1ccccc1[N+](=O)[O-] ; value = 1.6

// field: logP; key: CC(C)OC(=O)CSc1ccc(Cl)cc1[N+](=O)[O-] ; value = 3.14

// field: logP; key: CC(C)OC(=O)CSc1ccc([N+](=O)[O-])cc1Cl ; value = 3.29

// field: logP; key: COC(=O)CSc1ccc(Cl)cc1[N+](=O)[O-] ; value = 2.5

// field: logP; key: CC(C)OC(=O)CS(=O)(=O)c1ccc([N+](=O)[O-])cc1 ; value = 1.79

// field: logP; key: CC(C)OC(=O)CSc1ccc([N+](=O)[O-])cc1 ; value = 2.66
